Assay: The drug is tested on Z-009 corresponding to pig gut metagenome with ENA study accession number: PRJEB37062 and ENA sample accession number: ERS12561809 for biotransformation under anaerobic condition. The drug concentrations were measured over 9 timepoints collected between 0 and 24 hours of incubation by liquid-chromatography-coupled mass spectrometry (LC–MS); note: call rule not given here
Settings: 2 µM
metric_name: Bacterial Biotransformation

Examples with their reported Bacterial Biotransformation follow.
{"molecule": "CCN(CC)CCNC(=O)c1ccc(NC(C)=O)cc1 [ACECAINIDE]", "Bacterial Biotransformation": "Compound NOT metabolized"}
{"molecule": "COc1ccc2cc([C@H](C)C(=O)O)ccc2c1", "Bacterial Biotransformation": "Compound NOT metabolized"}
{"molecule": "CCc1cccc2c3c([nH]c12)C(CC)(CC(=O)O)OCC3 (configuration not stated)", "Bacterial Biotransformation": "Compound NOT metabolized"}
{"molecule": "CCN(C(C)=O)c1cccc(-c2ccnc3c(C#N)cnn23)c1", "Bacterial Biotransformation": "Compound metabolized"}
{"molecule": "CCCN1C[C@H](CSC)C[C@@H]2c3cccc4[nH]cc(c34)C[C@H]21.CS(=O)(=O)O [PERGOLIDE MESYLATE]", "Bacterial Biotransformation": "Compound NOT metabolized"}

INPUT: Using the record for Cc1ccc(NC(=O)c2ccc(CN3CCN(C)CC3)cc2)cc1Nc1nccc(-c2cccnc2)n1 , report its Bacterial Biotransformation.
OUTPUT: Compound NOT metabolized

INPUT: Reported Bacterial Biotransformation for C[C@]12CCC(=O)C=C1[C@@H]1C[C@@H]1[C@H]1[C@@H]3[C@@H]4C[C@@H]4[C@@]4(CCC(=O)O4)[C@@]3(C)CC[C@@H]12 : what is it?
OUTPUT: Compound metabolized

INPUT: Recorded Bacterial Biotransformation for CN1CCC(OC(c2ccccc2)c2ccccc2)CC1 , please?
OUTPUT: Compound NOT metabolized

INPUT: Name the reported Bacterial Biotransformation value associated with the molecule OCCN(CCO)c1nc(N2CCCCC2)c2nc(N(CCO)CCO)nc(N3CCCCC3)c2n1
OUTPUT: Compound metabolized

INPUT: Consider the molecule CC(C)(C)NCC(O)c1cc(Cl)c(N)c(Cl)c1 (configuration not stated) and give its measured Bacterial Biotransformation.
OUTPUT: Compound NOT metabolized

INPUT: Endpoint output: Bacterial Biotransformation of CCN1CCCC1CNC(=O)c1cc(S(=O)(=O)CC)c(N)cc1OC (configuration not stated) [AMISULPRIDE] . Value?
OUTPUT: Compound NOT metabolized

INPUT: Bench note: what Bacterial Biotransformation did CN[C@H]1CC[C@@H](c2ccc(Cl)c(Cl)c2)c2ccccc21 show?
OUTPUT: Compound metabolized

INPUT: Which Bacterial Biotransformation value is on record for N#Cc1ccc2[nH]cc(CCCCN3CCN(c4ccc5oc(C(N)=O)cc5c4)CC3)c2c1 ?
OUTPUT: Compound NOT metabolized

INPUT: Which Bacterial Biotransformation reading was recorded for the molecule O=P1(N(CCCl)CCCl)NCCCO1 (configuration not stated) [CYCLOPHOSPHAMIDE ANHYDROUS] ?
OUTPUT: Compound metabolized

INPUT: For CC(NC(C)(C)C)C(=O)c1cccc(Cl)c1 (configuration not stated) , what is its reported Bacterial Biotransformation?
OUTPUT: Compound NOT metabolized

INPUT: Item CC(=O)OCC(=O)[C@@]1(OC(C)=O)[C@@H](C)C[C@H]2[C@@H]3C[C@H](F)C4=CC(=O)C=C[C@]4(C)[C@@]3(F)[C@@H](O)C[C@@]21C [DIFLORASONE DIACETATE] has what recorded Bacterial Biotransformation?
OUTPUT: Compound metabolized

INPUT: Any idea what Bacterial Biotransformation was measured for CC[C@@]1(O)C(=O)OCc2c1cc1n(c2=O)Cc2cc3c(CN(C)C)c(O)ccc3nc2-1 ?
OUTPUT: Compound NOT metabolized

====

Experiment: The drug is tested on Z-011 corresponding to mouse gut metagenome with ENA study accession number: PRJEB37062 and ENA sample accession number: ERS12561811 for biotransformation under anaerobic condition. The drug concentrations were measured over 9 timepoints collected between 0 and 24 hours of incubation by liquid-chromatography-coupled mass spectrometry (LC–MS)
Settings: 2 µM
metric_name: Bacterial Biotransformation

{"compound": "COc1ccnc(C[S+]([O-])c2nc3ccc(OC(F)F)cc3[nH]2)c1OC (centres undefined) [PANTOPRAZOLE]", "recorded_value": "Compound metabolized"}
{"compound": "CC(C)[C@H]1CC[C@H](C(=O)N[C@H](Cc2ccccc2)C(=O)O)CC1 [NATEGLINIDE]", "recorded_value": "Compound metabolized"}
{"compound": "CN[C@H]1CC[C@@H](c2ccc(Cl)c(Cl)c2)c2ccccc21 [SERTRALINE]", "recorded_value": "Compound metabolized"}

====

Assay: The drug is tested on Z-029 corresponding to rat gut metagenome with ENA study accession number: PRJEB37062 and ENA sample accession number: ERS12561828 for biotransformation under anaerobic condition. The drug concentrations were measured over 9 timepoints collected between 0 and 24 hours of incubation by liquid-chromatography-coupled mass spectrometry (LC–MS)
Conditions: 2 µM
metric_name: Bacterial Biotransformation

Example entries and their recorded answers appear below.
{"compound": "CC(=O)OCC(=O)NCCCOc1cccc(CN2CCCCC2)c1 [ROXATIDINE ACETATE]", "Bacterial Biotransformation": "Compound metabolized"}
{"compound": "CC(N)C12CC3CC(CC(C3)C1)C2 (stereo not given)", "Bacterial Biotransformation": "Compound NOT metabolized"}
{"compound": "OC(c1cc(C(F)(F)F)nc2c(C(F)(F)F)cccc12)C1CCCCN1 (stereo not given)", "Bacterial Biotransformation": "Compound metabolized"}
{"compound": "C=C[C@H]1CN2CC[C@H]1C[C@H]2[C@H](O)c1ccnc2ccc(OC)cc12.C=C[C@H]1CN2CC[C@H]1C[C@H]2[C@H](O)c1ccnc2ccc(OC)cc12.O.O.O=S(=O)(O)O [QUININE SULFATE]", "Bacterial Biotransformation": "Compound NOT metabolized"}

# next compound below
INPUT: Give its Bacterial Biotransformation value. Item: C#C[C@]1(OC(C)=O)CC[C@H]2[C@@H]3CCC4=C/C(=N/O)CC[C@@H]4[C@H]3CC[C@@]21CC [NORGESTIMATE]
OUTPUT: Compound metabolized

====

Conditions: human gut metagenome, 24 h, 2 µM
metric_name: Bacterial Biotransformation

Sample records with Bacterial Biotransformation:
{"molecule": "CCCCCNC(=N)N/N=C/c1c[nH]c2ccc(OC)cc12.O=C(O)/C=C\\C(=O)O [TEGASEROD MALEATE]", "Bacterial Biotransformation": "Compound NOT metabolized"}
{"molecule": "CC(C)C[C@H]1C(=O)N2CCC[C@H]2[C@]2(O)O[C@](NC(=O)[C@@H]3C=C4c5cccc6[nH]c(Br)c(c56)C[C@H]4N(C)C3)(C(C)C)C(=O)N12.CS(=O)(=O)O [BROMOCRIPTINE MESYLATE]", "Bacterial Biotransformation": "Compound metabolized"}
{"molecule": "CN[C@H]1CC[C@@H](c2ccc(Cl)c(Cl)c2)c2ccccc21", "Bacterial Biotransformation": "Compound metabolized"}
{"molecule": "CC(=O)O[C@H]1C(=O)[C@@]2(C)[C@H]([C@H](OC(=O)c3ccccc3)[C@]3(O)C[C@H](OC(=O)[C@H](O)[C@@H](NC(=O)c4ccccc4)c4ccccc4)C(C)=C1C3(C)C)[C@]1(OC(C)=O)CO[C@@H]1C[C@@H]2O", "Bacterial Biotransformation": "Compound NOT metabolized"}

INPUT: Requested field: Bacterial Biotransformation. Item: CC(=O)Oc1ccc(C(c2ccc(OC(C)=O)cc2)c2ccccn2)cc1
OUTPUT: Compound metabolized

INPUT: Which Bacterial Biotransformation value is on record for O=C1CN2Cc3c(ccc(Cl)c3Cl)N=C2N1 [ANAGRELIDE] ?
OUTPUT: Compound NOT metabolized

====

Conditions: human gut metagenome, 24 h, 2 µM
metric_name: Bacterial Biotransformation

{"molecule": "CCOc1cc(CC(=O)N[C@@H](CC(C)C)c2ccccc2N2CCCCC2)ccc1C(=O)O [REPAGLINIDE]", "recorded_value": "Compound metabolized"}
{"molecule": "O=C(NC(Cc1cc(=O)[nH]c2ccccc12)C(=O)O)c1ccc(Cl)cc1 (centres undefined) [REBAMIPIDE]", "recorded_value": "Compound NOT metabolized"}
{"molecule": "COc1ccc([C@@H]2Sc3ccccc3N(CCN(C)C)C(=O)[C@@H]2OC(C)=O)cc1 [DILTIAZEM]", "recorded_value": "Compound metabolized"}
{"molecule": "CC(C)c1c(CN(C)C(C)Cc2ccccc2)n(C)n(-c2ccccc2)c1=O (centres undefined) [FAMPROFAZONE]", "recorded_value": "Compound metabolized"}
{"molecule": "CC(=O)OCC(=O)NCCCOc1cccc(CN2CCCCC2)c1 [ROXATIDINE ACETATE]", "recorded_value": "Compound metabolized"}

INPUT: Requested read-out: Bacterial Biotransformation. Entry: CCN(CC)CCNC(=O)c1cc(S(C)(=O)=O)ccc1OC [TIAPRIDE]
OUTPUT: Compound NOT metabolized

INPUT: Can you share its Bacterial Biotransformation? I mean this molecule: CN1CCC(=C2c3ccccc3CC(=O)c3sccc32)CC1.O=C(O)/C=C/C(=O)O [KETOTIFEN FUMARATE]
OUTPUT: Compound metabolized

INPUT: // Bacterial Biotransformation lookup, key: CN(C/C=C/C#CC(C)(C)C)Cc1cccc2ccccc12 [TERBINAFINE]
OUTPUT: Compound metabolized

INPUT: Requested read-out: Bacterial Biotransformation. Entry: CC#C[C@]1(O)CC[C@H]2[C@@H]3CCC4=CC(=O)CCC4=C3[C@@H](c3ccc(N(C)C)cc3)C[C@@]21C [MIFEPRISTONE]
OUTPUT: Compound metabolized
